System: Plasmodium falciparum
method-description: Percentage inhibition of parasite growth in human erythrocytes at 5 uM
Assay type: functional
Threshold rule: inhibition at 5 µM greater than or equal to 50% is true (1); below that, false (0).

# example entries with known answers
{"structure-smiles": "CC(C)C[C@H](NC(=O)[C@H](C)NC(=O)C[C@H](O)[C@H](COCc1cccc(-c2ccsc2)c1)NC(=O)[C@@H](NC(=O)c1ccccn1)C(C)C)C(N)=O", "target": "Plasmodium falciparum", "class-name": "true (1)"}
{"structure-smiles": "CC(C)C[C@H](NC(=O)[C@H](C)NC(=O)C[C@H](O)[C@H](COCc1cccc(Br)c1)NC(=O)[C@@H](NC(=O)c1ccccn1)C(C)C)C(N)=O", "target": "Plasmodium falciparum", "class-name": "true (1)"}
{"structure-smiles": "CC(C)C[C@H](NC(=O)[C@H](C)NC(=O)C[C@H](O)[C@H](COCc1ccc(Br)cc1)NC(=O)c1c(F)cc(F)cc1F)C(N)=O", "target": "Plasmodium falciparum", "class-name": "false (0)"}
{"structure-smiles": "O=C(C[C@H](O)[C@H](COCc1ccc(Br)cc1)NC(=O)c1c(F)cc(F)cc1F)NC1CCCCC1", "target": "Plasmodium falciparum", "class-name": "false (0)"}
{"structure-smiles": "CC(C)C[C@H](NC(=O)[C@H](C)NC(=O)C[C@H](O)[C@H](COCc1ccc(-c2ccsc2)cc1)NC(=O)[C@@H](NC(=O)c1ccccn1)C(C)C)C(N)=O", "target": "Plasmodium falciparum", "class-name": "false (0)"}

Q) Hi team, for "CCCCNC(=O)C[C@H](O)[C@H](COCc1ccc(-c2ccsc2)cc1)NC(=O)[C@@H](NC(=O)c1ccccn1)C(C)C" , is the recorded inhibition at 5 µM at or above 50%?
A) false (0)

Q) Same lookup for "COc1cccc(CCNC(=O)C[C@H](O)[C@H](COCc2ccc(Br)cc2)NC(=O)c2c(F)cc(F)cc2F)c1" , please.
A) false (0)

Q) Here is the next compound: "CC(C)C[C@H](NC(=O)[C@H](C)NC(=O)C[C@H](O)[C@H](COCc1ccc(-c2ccccc2)cc1)NC(=O)[C@@H](NC(=O)c1ccccn1)C(C)C)C(N)=O"
A) true (1)

Q) And for "CC(C)C[C@H](NC(=O)[C@H](C)NC(=O)C[C@H](O)[C@H](COCc1ccc(-c2ccc3c(c2)OCO3)cc1)NC(=O)[C@@H](NC(=O)c1ccccn1)C(C)C)C(N)=O" ?
A) true (1)

---

The following are reported pKi results, target or system Plasmepsin II (Plasmodium falciparum, UniProt P46925).
One number for each entry, as −log10 of the molar value.

{"structure-smiles": "CC(C)C[C@H](NC(=O)[C@H](C)NC(=O)C[C@H](O)[C@H](COCc1ccc(-c2ccccc2)cc1)NC(=O)c1c(F)cc(F)cc1F)C(N)=O", "pKi": 7.32}

Provide reported pKi for each item, in the same order as listed.
1. CCCCNC(=O)C[C@H](O)[C@H](COCc1ccc(-c2ccccc2)cc1)NC(=O)[C@@H](NC(=O)c1ccccn1)C(C)C
2. CC(C)C[C@H](NC(=O)[C@H](C)NC(=O)C[C@H](O)[C@H](COCc1cccc(-c2ccccc2)c1)NC(=O)[C@@H](NC(=O)c1ccccn1)C(C)C)C(N)=O
3. CC(C)C[C@H](NC(=O)[C@H](C)NC(=O)C[C@H](O)[C@H](COCc1ccc(-c2ccsc2)cc1)NC(=O)c1c(F)cc(F)cc1F)C(N)=O
4. CC(C)C[C@H](NC(=O)[C@H](C)NC(=O)C[C@H](O)[C@H](COCc1ccc(-c2ccsc2)cc1)NC(=O)[C@@H](NC(=O)c1ccccn1)C(C)C)C(N)=O

A)
1: 7.80; 2: 8.36; 3: 7.26; 4: 8.96

Q) Field request: pKi | item: "CC(C)C[C@H](NC(=O)[C@H](C)NC(=O)C[C@H](O)[C@H](COCc1ccc(-c2ccc3c(c2)OCO3)cc1)NC(=O)[C@@H](NC(=O)c1ccccn1)C(C)C)C(N)=O"
A) 8.96

---

target: Plasmepsin I (Plasmodium falciparum, UniProt P39898)
Sequence (P39898 whole entry): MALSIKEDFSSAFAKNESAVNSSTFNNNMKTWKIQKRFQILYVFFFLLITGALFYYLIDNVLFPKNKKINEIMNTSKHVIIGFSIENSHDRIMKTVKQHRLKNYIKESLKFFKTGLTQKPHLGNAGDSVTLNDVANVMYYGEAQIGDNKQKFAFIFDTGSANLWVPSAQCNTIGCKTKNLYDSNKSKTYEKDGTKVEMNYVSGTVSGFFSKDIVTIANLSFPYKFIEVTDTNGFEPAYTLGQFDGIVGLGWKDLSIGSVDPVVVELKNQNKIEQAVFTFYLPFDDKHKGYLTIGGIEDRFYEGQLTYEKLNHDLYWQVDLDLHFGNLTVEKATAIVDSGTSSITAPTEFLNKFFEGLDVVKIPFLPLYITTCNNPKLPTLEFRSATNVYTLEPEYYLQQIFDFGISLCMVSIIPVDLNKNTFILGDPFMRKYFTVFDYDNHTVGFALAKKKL
pKi: −log10 of the molar value.
Hi, to clarify the labels: Y covers pKi from 9 upward, N covers anything below 9.

{"structure-smiles": "CC(C)C[C@H](NC(=O)[C@H](C)NC(=O)C[C@H](O)[C@H](COCc1ccc(-c2ccsc2)cc1)NC(=O)[C@@H](NC(=O)c1ccccn1)C(C)C)C(N)=O", "target": "Plasmepsin I (Plasmodium falciparum, UniProt P39898)", "class-name": "Y"}
{"structure-smiles": "CC(C)C[C@H](NC(=O)[C@H](C)NC(=O)C[C@H](O)[C@H](COCc1ccc(-c2ccsc2)cc1)NC(=O)c1c(F)cc(F)cc1F)C(N)=O", "target": "Plasmepsin I (Plasmodium falciparum, UniProt P39898)", "class-name": "N"}
{"structure-smiles": "CCCCNC(=O)C[C@H](O)[C@H](COCc1ccc(-c2ccccc2)cc1)NC(=O)[C@@H](NC(=O)c1ccccn1)C(C)C", "target": "Plasmepsin I (Plasmodium falciparum, UniProt P39898)", "class-name": "N"}
{"structure-smiles": "O=C(C[C@H](O)[C@H](COCc1ccc(-c2ccsc2)cc1)NC(=O)c1c(F)cc(F)cc1F)NC1CCCCC1", "target": "Plasmepsin I (Plasmodium falciparum, UniProt P39898)", "class-name": "N"}
{"structure-smiles": "CC(C)C[C@H](NC(=O)[C@H](C)NC(=O)C[C@H](O)[C@H](COCc1cccc(-c2ccsc2)c1)NC(=O)[C@@H](NC(=O)c1ccccn1)C(C)C)C(N)=O", "target": "Plasmepsin I (Plasmodium falciparum, UniProt P39898)", "class-name": "Y"}
{"structure-smiles": "O=C(C[C@H](O)[C@H](COCc1ccc(-c2ccccc2)cc1)NC(=O)c1c(F)cc(F)cc1F)NC1CCCCC1", "target": "Plasmepsin I (Plasmodium falciparum, UniProt P39898)", "class-name": "N"}

Q) Test whether the compound "CC(C)C[C@H](NC(=O)[C@H](C)NC(=O)C[C@H](O)[C@H](COCc1ccc(-c2ccc3c(c2)OCO3)cc1)NC(=O)[C@@H](NC(=O)c1ccccn1)C(C)C)C(N)=O" records pKi of 9 or higher.
A) Y
